Origin of values: PubChem BioAssay AID2060616

Tested on: 377384-186-R-J1-PDC complex spheroid viability;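 note: spheroids exposed to agents for 7 days before reading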
Assay: Anticancer human tumor 377384-186-R-J1-PDC patient-derived pancreatic carcinoma cell line growth inhibition [CLK]
Conditions: curve of first compound; second compound 1 µM
pIC50: −log10 of the molar value.
Some molecules, each annotated with its measured pIC50.

>  <molecule>
C=CC(=O)N1CCN(c2nc(=O)n(-c3c(C)ccnc3C(C)C)c3nc(-c4c(O)cccc4F)c(F)cc23)C(C)C1 (stereo unspecified) + CN1CCN(c2cc(C(=O)Nc3cc4cc(-c5cnn(C)c5)ccc4cn3)ccn2)CC1

>  <pIC50>
> 7.50

$$$$
>  <molecule>
CCCS(=O)(=O)Nc1ccc(F)c(C(=O)c2c[nH]c3ncc(-c4ccc(Cl)cc4)cc23)c1F + CNC(=O)c1ccc(Nc2nc(OC3CCCC3)c3c(-c4ccc5nc(C)oc5c4)c[nH]c3n2)c(OC)c1

>  <pIC50>
> 7.50

$$$$
>  <molecule>
Nc1ccccc1NC(=O)c1ccc(CNC(=O)OCc2cccnc2)cc1 + CN1CCN(c2cc(C(=O)Nc3cc4cc(-c5cnn(C)c5)ccc4cn3)ccn2)CC1

>  <pIC50>
> 7.50

$$$$
>  <molecule>
CC1COCCN1c1cc(C2(S(C)(=N)=O)CC2)nc(-c2ccnc3[nH]ccc23)n1 (stereo unspecified) + CN1CCN(c2cc(C(=O)Nc3cc4cc(-c5cnn(C)c5)ccc4cn3)ccn2)CC1

>  <pIC50>
> 7.50

$$$$
>  <molecule>
COc1cccc2c1C(=O)c1c(O)c3c(c(O)c1C2=O)CC(O)(C(=O)CO)CC3OC1CC(N)C(O)C(C)O1 (stereo unspecified) + CN1CCN(c2cc(C(=O)Nc3cc4cc(-c5cnn(C)c5)ccc4cn3)ccn2)CC1

>  <pIC50>
> 7.50

$$$$
>  <molecule>
Nc1ccn(C2OC(CO)C(O)C2(F)F)c(=O)n1 (stereo unspecified) + CN1CCN(c2cc(C(=O)Nc3cc4cc(-c5cnn(C)c5)ccc4cn3)ccn2)CC1

>  <pIC50>
> 7.50

$$$$
>  <molecule>
C=C(F)C(=O)N1CCN(c2nc(OCC3CCCN3C)nc3c2CCN(c2cccc4cccc(Cl)c24)C3)CC1CC#N (stereo unspecified) + CN1CCN(c2cc(C(=O)Nc3cc4cc(-c5cnn(C)c5)ccc4cn3)ccn2)CC1

>  <pIC50>
> 7.50

$$$$
>  <molecule>
CC(Nc1ccc2c(c1)OCCn1cc(N3C(=O)OCC3C(F)F)nc1-2)C(N)=O (stereo unspecified) + CNC(=O)c1ccc(Nc2nc(OC3CCCC3)c3c(-c4ccc5nc(C)oc5c4)c[nH]c3n2)c(OC)c1

>  <pIC50>
> 7.50

$$$$
>  <molecule>
C=CC(=O)Nc1cc(Nc2nccc(-c3cn(C)c4ccccc34)n2)c(OC)cc1N(C)CCN(C)C + CNC(=O)c1ccc(Nc2nc(OC3CCCC3)c3c(-c4ccc5nc(C)oc5c4)c[nH]c3n2)c(OC)c1

>  <pIC50>
> 9.02

$$$$
>  <molecule>
COc1c(OCCCN2CCOCC2)ccc2c3n(c(=NC(=O)c4cnc(N)nc4)nc12)CCN3 + CNC(=O)c1ccc(Nc2nc(OC3CCCC3)c3c(-c4ccc5nc(C)oc5c4)c[nH]c3n2)c(OC)c1

>  <pIC50>
> 8.50

$$$$
>  <molecule>
C#Cc1c(F)ccc2cc(O)cc(-c3ncc4c(N5CC6CCC(C5)N6)nc(OCC56CCCN5CC(F)C6)nc4c3F)c12 (stereo unspecified) + CN1CCN(c2cc(C(=O)Nc3cc4cc(-c5cnn(C)c5)ccc4cn3)ccn2)CC1

>  <pIC50>
> 7.50

$$$$
